Molecular target: Protein cereblon/Phospholipid hydroperoxide glutathione peroxidase GPX4 (Homo sapiens) (UniProt Q96SW2+P36969)
Sequence (P36969 whole entry, looked up): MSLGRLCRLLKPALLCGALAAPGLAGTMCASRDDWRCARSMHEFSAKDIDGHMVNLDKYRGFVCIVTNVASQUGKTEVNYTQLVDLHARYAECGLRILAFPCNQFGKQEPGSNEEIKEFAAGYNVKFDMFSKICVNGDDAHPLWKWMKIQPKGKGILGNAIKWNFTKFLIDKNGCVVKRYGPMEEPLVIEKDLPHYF
Sequence (Q96SW2 whole entry, looked up): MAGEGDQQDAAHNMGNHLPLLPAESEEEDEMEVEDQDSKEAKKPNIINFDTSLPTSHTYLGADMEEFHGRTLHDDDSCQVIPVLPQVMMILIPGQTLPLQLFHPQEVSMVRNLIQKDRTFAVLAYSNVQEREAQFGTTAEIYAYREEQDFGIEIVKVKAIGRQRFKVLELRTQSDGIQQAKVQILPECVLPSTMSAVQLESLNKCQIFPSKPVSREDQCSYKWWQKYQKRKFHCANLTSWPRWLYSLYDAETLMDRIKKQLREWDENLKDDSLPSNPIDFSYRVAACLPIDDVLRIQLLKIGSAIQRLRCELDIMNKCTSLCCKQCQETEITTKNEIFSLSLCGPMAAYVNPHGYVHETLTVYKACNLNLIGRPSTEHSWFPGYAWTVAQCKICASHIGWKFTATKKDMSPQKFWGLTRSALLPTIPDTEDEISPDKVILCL
Test: PROTAC activity at CRBN/GPX4 in human HT-1080 cells assessed as induction of GPX4 degradation at 1 uM incubated for 24 hrs by Western blot analysis relative to control
Format: cell-based
metric: Activity (%)

# molecule, observed.measurement
rows = [
    ("Cc1onc(C(=O)N2CCN(C(c3ccc(Cl)cc3)c3ccc(OCC(=O)N4CCN(CCCCCCCCCCCCNc5cccc6c5CN(C5CCC(=O)NC5=O)C6=O)CC4)cc3)CC2)c1[N+](=O)[O-] (stereo not given)", 32),
    ("Cc1onc(C(=O)N2CCN(C(c3ccc(Cl)cc3)c3ccc(OCC(=O)N4CCN(CCCCCCCCNc5cccc6c5CN(C5CCC(=O)NC5=O)C6=O)CC4)cc3)CC2)c1[N+](=O)[O-] (stereo not given)", 36),
    ("Cc1onc(C(=O)N2CCN(C(c3ccc(Cl)cc3)c3ccc(OCC(=O)N4CCC(CN5CCN(CCCCNc6cccc7c6C(=O)N(C6CCC(=O)NC6=O)C7=O)CC5)CC4)cc3)CC2)c1[N+](=O)[O-] (stereo not given)", 70),
]

I: Cc1onc(C(=O)N2CCN(C(c3ccc(Cl)cc3)c3ccc(OCC(=O)N4CCN(CCCCCCCNc5cccc6c5CN(C5CCC(=O)NC5=O)C6=O)CC4)cc3)CC2)c1[N+](=O)[O-] (stereo not given)
II: Cc1onc(C(=O)N2CCN(C(c3ccc(Cl)cc3)c3ccc(OCC(=O)N4CCN(CCCCCCCCCNc5cccc6c5CN(C5CCC(=O)NC5=O)C6=O)CC4)cc3)CC2)c1[N+](=O)[O-] (stereo not given)
Task: Of I and II , which one carries the higher reported Activity? Use the label to indicate which entry you chose.
Result: II
(II: 40%, I: 13%)
